molecular target: hNTS1R (Homo sapiens); construct: intact HT-29 colon carcinoma cells expressing the hNTS1R; host or cells: HT-29 human colon carcinoma cells; experiment: radioligand competition binding with [3H]UR-MK300 at intact HT-29 cells; conditions: [3H]UR-MK300 c = 1 nM, HT-29 cells, 23 °C; read-out: Ki [nM] NTS1R (converted)
Sequence (P30989 whole entry): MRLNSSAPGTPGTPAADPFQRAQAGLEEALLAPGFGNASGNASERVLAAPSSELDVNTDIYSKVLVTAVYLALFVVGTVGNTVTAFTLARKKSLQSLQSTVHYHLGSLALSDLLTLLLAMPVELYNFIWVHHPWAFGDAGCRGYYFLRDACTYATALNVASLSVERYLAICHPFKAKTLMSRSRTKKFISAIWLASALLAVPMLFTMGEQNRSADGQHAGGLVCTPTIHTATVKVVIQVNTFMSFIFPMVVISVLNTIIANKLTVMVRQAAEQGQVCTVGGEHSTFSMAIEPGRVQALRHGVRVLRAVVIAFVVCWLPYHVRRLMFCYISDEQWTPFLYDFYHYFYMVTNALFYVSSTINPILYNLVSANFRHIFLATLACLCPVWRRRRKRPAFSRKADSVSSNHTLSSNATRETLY
Metric name: Ki (nM)

Compound	Metric name	Units text	Measured value
CN[C@@H](CCCNC(N)=NC(=O)NCCCCNC(=O)CN1CCN(CC(=O)O)CCN(CC(=O)O)CCN(CC(=O)O)CC1)C(=O)N[C@@H](CCCNC(=N)N)C(=O)N1CCC[C@H]1C(=O)N[C@@H](Cc1ccc(O)cc1)C(=O)N[C@H](C(=O)N[C@@H](CC(C)C)C(=O)O)C(C)(C)C [Compound 16]	Ki	nM	33

[a] CC(C)C[C@H](NC(=O)[C@@H](NC(=O)[C@H](Cc1ccc(O)cc1)NC(=O)[C@@H]1CCCN1C(=O)[C@H](CCCNC(=N)NC(=O)NCCCCNC(=O)CN1CCN(CC(=O)O)CCN(CC(=O)O)CCN(CC(=O)O)CC1)N(C)C(=O)[C@@H](N)CCCNC(=N)N)C(C)(C)C)C(=O)O
[b] CN[C@@H](CCCNC(=N)N)C(=O)N[C@@H](CCCNC(N)=NC(=O)NCCCCNC(=O)CN1CCN(CC(=O)O)CCN(CC(=O)O)CCN(CC(=O)O)CC1)C(=O)N1CCC[C@H]1C(=O)N[C@@H](Cc1ccc(O)cc1)C(=O)N[C@H](C(=O)N[C@@H](CC(C)C)C(=O)O)C(C)(C)C
Endpoint returns whichever of a and b has the numerically higher Ki. # respond with the chosen item's label a
(a: 36 nM, b: 16 nM)

---

assay: in vivo; conditions: female, NMRI nude (nu/nu), mouse, total radioactivity, Uptake (%ID/g) heart
Metric name: tissue uptake at 10 min (%ID/g)
Just the number in %ID/g, nothing appended.

Item CC[C@H](C)[C@H](NC(=O)[C@@H](NC(=O)[C@@H]1CCCN1C(=O)[C@H](CCCNC(=N)N)NC(=O)[C@H](CCCNC(N)=NC(=O)NCCCCNC(=O)CN1CCN(CC(=O)O)CCN(CC(=O)O)CCN(CC(=O)O)CC1)NC)C(C)(C)c1ccc(O)cc1)C(=O)N[C@@H](CC(C)C)C(=O)O [[^68Ga]56, metal not drawn] has what recorded tissue uptake at 10 min? 1.2

---

experiment: in vivo; details: female, NMRI nude (nu/nu), mouse, total radioactivity, Uptake (%ID/g) muscle
Metric name: tissue uptake at 0.75 h (%ID/g)
Just the number in %ID/g, nothing appended.

Item CN[C@@H](CCCNC(N)=NC(=O)NCCOCCOCCNC(=O)[C@@H](Cc1ccc(-c2ccc(F)cc2)cc1)NC(=O)CN1CCN(CC(=O)O)CCN(CC(=O)O)CCN(CC(=O)O)CC1)C(=O)N[C@@H](CCCNC(=N)N)C(=O)N1CCC[C@H]1C(=O)N[C@@H](Cc1ccc(O)cc1)C(=O)N[C@H](C(=O)N[C@@H](CC(C)C)C(=O)O)C(C)(C)C [[^68Ga]37, metal not drawn] has what recorded tissue uptake at 0.75 h? 0.5

Item CC[C@H](C)[C@H](NC(=O)[C@@H](NC(=O)[C@@H]1CCCN1C(=O)[C@H](CCCNC(=N)N)NC(=O)[C@H](CCCNC(N)=NC(=O)NCCCCNC(=O)CN1CCN(CC(=O)O)CCN(CC(=O)O)CCN(CC(=O)O)CC1)NC)C(C)(C)c1ccc(O)cc1)C(=O)N[C@@H](CC(C)C)C(=O)O [[^68Ga]56, metal not drawn] has what recorded tissue uptake at 0.75 h? 0.55

Item CN[C@@H](CCCNC(N)=NC(=O)NCCOCCOCCNC(=O)[C@@H](Cc1ccc(-c2ccc(F)cc2)cc1)NC(=O)CCCCCNC(=O)CN1CCN(CC(=O)O)CCN(CC(=O)O)CCN(CC(=O)O)CC1)C(=O)N[C@@H](CCCNC(=N)N)C(=O)N1CCC[C@H]1C(=O)N[C@@H](Cc1ccc(O)cc1)C(=O)N[C@H](C(=O)N[C@@H](CC(C)C)C(=O)O)C(C)(C)C [[^68Ga]33, metal not drawn] has what recorded tissue uptake at 0.75 h? 0.41

---

molecular target: hNTS1R (Homo sapiens); construct: intact HT-29 colon carcinoma cells expressing the hNTS1R; host or cells: HT-29 human colon carcinoma cells; assay: radioligand competition binding with [3H]UR-MK300 at intact HT-29 cells; details: [3H]UR-MK300 c = 1 nM, HT-29 cells, 23 °C; read-out: Ki [nM] NTS1R (converted)
Metric name: Ki (nM)

Below, each entry is followed by its recorded Ki result.
Molecule	Ki [nM]
CN[C@@H](CCCNC(N)=NC(=O)NCCOCCOCCNC(=O)[C@H](N)Cc1ccc(-c2ccc(F)cc2)cc1)C(=O)N[C@@H](CCCNC(=N)N)C(=O)N1CCC[C@H]1C(=O)N[C@@H](Cc1ccc(O)cc1)C(=O)N[C@H](C(=O)N[C@@H](CC(C)C)C(=O)O)C(C)(C)C [Compound 26]	3.1
CN[C@@H](CCCNC(N)=NC(=O)NCCCCNC(=O)[C@@H](Cc1ccc(-c2ccc(F)cc2)cc1)NC(=O)CN1CCN(CC(=O)O)CCN(CC(=O)O)CCN(CC(=O)O)CC1)C(=O)N[C@@H](CCCNC(=N)N)C(=O)N1CCC[C@H]1C(=O)N[C@@H](Cc1ccc(O)cc1)C(=O)N[C@H](C(=O)N[C@@H](CC(C)C)C(=O)O)C(C)(C)C [Compound 34]	10
CN[C@@H](CCCNC(=N)N)C(=O)N[C@@H](CCCNC(=N)NC(=O)NCCCCN)C(=O)N1CCC[C@H]1C(=O)N[C@@H](Cc1ccc(O)cc1)C(=O)N[C@H](C(=O)N[C@@H](CC(C)C)C(=O)O)C(C)(C)C [Compound 8]	5.3
CN[C@@H](CCCNC(N)=NC(=O)NCCCCN)C(=O)N[C@@H](CCCNC(=N)N)C(=O)N1CCC[C@H]1C(=O)N[C@H](C(=O)N[C@H](C(=O)N[C@@H](CC(C)C)C(=O)O)C(C)(C)C)C(C)(C)c1ccc(O)cc1 [Compound 52]	5.4
CN[C@@H](CCCNC(N)=NC(=O)NCCCCNC(=O)[C@H](N)Cc1ccc(-c2ccc(F)cc2)cc1)C(=O)N[C@@H](CCCNC(=N)N)C(=O)N1CCC[C@H]1C(=O)N[C@@H](Cc1ccc(O)cc1)C(=O)N[C@H](C(=O)N[C@@H](CC(C)C)C(=O)O)C(C)(C)C [Compound 25]	4.3

[1] CN[C@@H](CCCNC(=N)N)C(=O)N[C@@H](CCCNC(=N)N)C(=O)N1CCC[C@H]1C(=O)N[C@@H](Cc1ccc(O)cc1)C(=O)N[C@H](C(=O)N[C@@H](CC(C)C)C(=O)O)C1CCCC1 [Compound 43]
[2] CC[C@@H](C)[C@H](NC(=O)[C@H](Cc1ccc(O)cc1)NC(=O)[C@@H]1CCCN1C(=O)[C@H](CCCNC(=N)N)NC(=O)[C@H](CCCNC(=N)N)NC)C(=O)N[C@@H](CC(C)C)C(=O)O [Compound 38]
[3] CN[C@@H](CCCNC(=N)N)C(=O)N[C@@H](CCCNC(=N)N)C(=O)N1CCC[C@H]1C(=O)N[C@@H](Cc1ccc(O)cc1)C(=O)N[C@H](C(=O)N[C@@H](CC(C)C)C(=O)O)C1CC1 [Compound 40]
[4] CC[C@H](C)[C@H](NC(=O)[C@H](Cc1ccc(O)cc1)NC(=O)[C@@H]1CCCN1C(=O)[C@H](CCCNC(=N)N)NC(=O)[C@H](CCCNC(=N)N)NC)C(=O)N[C@@H](CC1CC1)C(=O)O [Compound 46]
Please list these molecules in decreasing order of Ki. Return value: ordered labels per request. 3, 2, 4, 1

---

assay: in vitro; type: in vitro ADME; conditions: human, 48 h, 100 µM, pH 7.4
Metric name: % Intact Peptide in Plasma after 48 h (%)

Below, each entry is followed by its recorded % Intact Peptide in Plasma after 48 h result.
Molecule	% Intact Peptide in Plasma after 48 h (%)
CN[C@@H](CCCNC(N)=NC(=O)NCCCCNC(=O)CN1CCN(CC(=O)O)CCN(CC(=O)O)CCN(CC(=O)O)CC1)C(=O)N[C@@H](CCCNC(=N)N)C(=O)N1CCC[C@H]1C(=O)N[C@@H](Cc1ccc(O)cc1)C(=O)N[C@H](C(=O)N[C@@H](CC(C)C)C(=O)O)C(C)(C)C [Compound 21]	4.1
CN[C@@H](CCCNC(N)=NC(=O)NCCOCCOCCNC(=O)CN1CCN(CC(=O)O)CCN(CC(=O)O)CCN(CC(=O)O)CC1)C(=O)N[C@@H](CCCNC(=N)N)C(=O)N1CCC[C@H]1C(=O)N[C@@H](Cc1ccc(O)cc1)C(=O)N[C@H](C(=O)N[C@@H](CC(C)C)C(=O)O)C(C)(C)C	7.8
CN[C@@H](CCCNC(N)=NC(=O)NCCCCNC(=O)CN1CCN(CC(=O)O)CCN(CC(=O)O)CCN(CC(=O)O)CC1)C(=O)N[C@@H](CCCNC(=N)N)C(=O)N1CCC[C@H]1C(=O)N[C@@H](Cc1ccc(O)cc1)C(=O)N[C@H](C(=O)N[C@@H](CC(C)C)C(=O)O)C(C)(C)C [Compound 16]	84

[A] CC(C)C[C@H](NC(=O)[C@@H](NC(=O)[C@H](Cc1ccc(O)cc1)NC(=O)[C@@H]1CCCN1C(=O)[C@H](CCCNC(N)=NC(=O)NCCCCNC(=O)CN1CCN(CC(=O)O)CCN(CC(=O)O)CCN(CC(=O)O)CC1)N(C)C(=O)[C@@H](N)CCCNC(=N)N)C(C)(C)C)C(=O)O
[B] CN[C@@H](CCCNC(=N)NC(=O)NCCOCCOCCNC(=O)CN1CCN(CC(=O)O)CCN(CC(=O)O)CCN(CC(=O)O)CC1)C(=O)N[C@@H](CCCNC(=N)N)C(=O)N1CCC[C@H]1C(=O)N[C@@H](Cc1ccc(O)cc1)C(=O)N[C@H](C(=O)N[C@@H](CC(C)C)C(=O)O)C(C)(C)C
Min % Intact Peptide in Plasma after 48 h? A | B # respond with the chosen item's label A
(A: 7.7%, B: 86%)
